# Tested on: PC14
# Experimental Protocol: Cell-based assay, anti-proliferative activity (Cell Counting Kit-8, 72 hours)
# Run Conditions: Homo sapiens, PC-14, 72 h, read-out: IC50 (μM) PC14
Structures can show the parent of a compound that is named as a salt.
// values below are reported IC50

Compound | IC50 [µM]
COc1cc(OC)c(-c2cn3cc(NCCNC(C)=O)c(N4CCOCC4)cc3n2)cc1Cl [Example 224] | 10
COc1cc(OC)c(-c2cn3ccc(N4CC[C@H](N)C4)cc3n2)cc1Cl [Example 47, hydrochloride] | 4.5
COc1cc(OC)c(-c2cn3ccc(N4CCC(O)C4)cc3n2)cc1Br (centres unmarked) [Example 7] | 6.1
COc1cc(C)c(Cl)cc1-c1cn2ccc(N3CCNCC3)cc2n1 [Example 228, hydrochloride] | 2.3
CNc1ccn2cc(-c3cc(Cl)c(OC)cc3OC)nc2c1 [Example 6, hydrobromide] | 1.4
COc1cc(OC)c(-c2cn3ccc(NC(=O)[C@@H](N)Cc4c[nH]c5ccccc45)cc3n2)cc1Cl [Example 250] | 4.2
COc1cc(OC)c(-c2cn3ccc(NC(=O)[C@@H](N)C(C)C)cc3n2)cc1Cl [Example 252] | 6.3
CNC1CCN(c2ccn3cc(-c4cc(Cl)c(OC)cc4OC)nc3c2)CC1 [Example 24, hydrochloride] | 5.7
